B1: WDR88 (parent)
chain: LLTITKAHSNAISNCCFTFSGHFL

- Variants of: B1
- measurement notes: protein stability index of a GFP-peptide fusion (GPS, HEK-293T) (PSI 1-6); higher = more stable;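 further: lentivirally expressed fusions sorted by FACS into six bins by GFP to DsRed ratio, PSI derived from sequencing read proportions per bin multiplied by bin number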
- test conditions: c terminus: a fixed tail appended
result type: protein stability index

## Task Any idea what protein stability index was measured for T3D ?
## Result 2.61

## Task Given A7C , state its recorded protein stability index.
## Result 2.75

## Task protein stability index lookup needed for L24W , thanks.
## Result 1.58

## Task # query: protein stability index of entry F19I
## Result 2.85

## Task Form field: reported protein stability index of C15D
## Result 1.84

## Task Bench note: what protein stability index did H22S show?
## Result 2.34

## Task Quick check: protein stability index of N14A ?
## Result 1.44

## Task For the variant L2N , what protein stability index is on record?
## Result 2.82

## Task Please give the measured protein stability index for this variant: K6H
## Result 3.03

## Task Entry S13F : reported protein stability index = ?
## Result 3.89

## Task Which protein stability index value belongs to F19L ?
## Result 2.82

## Task What does the data say about its protein stability index? Entry: T5M
## Result 3.85

## Task Query: protein stability index; subject: S20L
## Result 2.94

## Task Entry under review: L24H . Reported protein stability index?
## Result 2.63

## Task // returns reported protein stability index for input T18A
## Result 3.52

## Task Need protein stability index, item C16K
## Result 2.37
